Each recorded value in this set is attributed to PubChem BioAssay AID614.

STUDY_TARGET: Alkaline phosphatase, tissue-nonspecific isozyme (Homo sapiens)
PROTOCOL_DETAILS: human TNAP enzyme inhibitors, primary screen, biochemical, colorimetric, phosphate release readout (AID 614)
CONDITION_DESCRIPTION: purified TNAP, pNPP, malachite green phosphate absorbance; at 20 µM; active compounds read high
Out of some 21,000 compounds screened, fewer than 10 were called active. A selection follows.
PROPERTY_MEASURED: inhibition (%)

- COMPOUND: "Cc1cccc(Cn2c(N3CCN(c4ccccc4)CC3)nc3c2c(=O)n(C)c(=O)n3C)c1"
  NUMERIC_READOUT: 8.8
- COMPOUND: "Cc1ccc(C(C)C)c(OCc2nnc(SCC(=O)Nc3nccs3)n2C)c1"
  NUMERIC_READOUT: -5.7
- COMPOUND: "COc1ccc(CCn2c(-c3ccco3)nc3nc4ccccc4nc32)cc1OC"
  NUMERIC_READOUT: 1.5
- COMPOUND: "CCCCNc1nc2ccccc2nc1NS(=O)(=O)c1cccs1"
  NUMERIC_READOUT: 1.2
- COMPOUND: "Cc1ccc2cc(C#N)c(SCC(=O)NCC3CCCO3)nc2c1C (stereo not drawn)"
  NUMERIC_READOUT: 8.6
- COMPOUND: "CCOC(=O)CN(C(=O)CN1CCOCC1)c1ccc(Br)cc1"
  NUMERIC_READOUT: -1.5
- COMPOUND: "O=C(O)COc1nsnc1N1CCOCC1"
  NUMERIC_READOUT: 10.4
- COMPOUND: "Cc1csc(NC(=O)CN2CCCCCC2)n1"
  NUMERIC_READOUT: 14.8
- COMPOUND: "Cn1c(=O)[nH]c(=O)c2c1nc(Br)n2CCCCSc1nc2ccccc2o1"
  NUMERIC_READOUT: 1.3
- COMPOUND: "CN(C)CCCNc1c2c(c(C#N)c3nc4ccccc4n13)CCC2"
  NUMERIC_READOUT: 0
- COMPOUND: "Cc1cccc2cc(CN(Cc3ccc4c(c3)OCO4)Cc3nnnn3C3CCCC3)c(=O)[nH]c12"
  NUMERIC_READOUT: 15
- COMPOUND: "CCCn1c(SCC(=O)c2ccc3c(c2)OCCO3)nnc1C(C)C"
  NUMERIC_READOUT: 11.4
- COMPOUND: "COc1ccccc1N1CCN(C(=O)c2ccc(S(=O)(=O)N3CCCCC3)cc2)CC1"
  NUMERIC_READOUT: 11.7
- COMPOUND: "O=C(NCCSc1ccccc1)c1ccco1"
  NUMERIC_READOUT: 13.2
- COMPOUND: "COCCNC(=O)C(C#N)c1nc2ccccc2nc1N1CCN(Cc2ccc3c(c2)OCO3)CC1 (stereo not drawn)"
  NUMERIC_READOUT: 8.2
- COMPOUND: "Cn1c(=O)c2c(nc(OCc3cccnc3)n2Cc2ccccc2)n(C)c1=O"
  NUMERIC_READOUT: 0
- COMPOUND: "CCc1ccc(N2CC(C(=O)NC3=NCCS3)CC2=O)cc1 (stereo not drawn)"
  NUMERIC_READOUT: -4.1
- COMPOUND: "O=S(=O)(NCC1CCCO1)c1ccc2ccccc2c1 (stereo not drawn)"
  NUMERIC_READOUT: 8.8
- COMPOUND: "CCCC(=O)Nc1ccc2c(c1)nc1n2CCSC1"
  NUMERIC_READOUT: 3.5
- COMPOUND: "COc1c(O)cccc1-c1nnn(CCC(=O)OCC(=O)c2ccccc2)n1"
  NUMERIC_READOUT: 2.2
- COMPOUND: "CCc1cccc(C)c1NC(=O)CSc1nnc(-c2ccco2)n1N"
  NUMERIC_READOUT: 7.1
- COMPOUND: "O=C(CSc1nnc(-c2ccccn2)n1-c1ccccc1)Nc1ccc2c(c1)OCO2"
  NUMERIC_READOUT: 3.6
- COMPOUND: "Cc1noc(C)c1CSc1nnc2ccc3ccccc3n12"
  NUMERIC_READOUT: 12.2
